For each record, write down the corresponding pKi.
experimental.target: Factor Xa
measurement.notes: selectivity inhibition assay
No end group written: not given here. *: point of attachment. kbt = C-terminal ketobenzothiazole, c1ccc2sc(*)nc2c1; Kbt = ketobenzothiazole, c1ccc2sc(*)nc2c1
pKi is a log-scale quantity: -log10 of the concentration expressed in molar.

# pKi of Ac-WLFR-kbt (SMILES CC(=O)N[C@@H](Cc1c[nH]c2ccccc12)C(=O)N[C@@H](CC(C)C)C(=O)N[C@@H](Cc1ccccc1)C(=O)N[C@@H](CCCNC(=N)N)C(=O)c1nc2ccccc2s1) [Ac-WLFR(SEQ ID NO: 20)-Kbt] = 9.00

The binder listed as H-Arg-Leu-Arg-kbt [H-RLR-kbt] shows pKi equal to 7.25

Just so you know, measured pKi for Ac-KRLR-Kbt (SMILES CC(=O)N[C@@H](CCCCN)C(=O)N[C@@H](CCCNC(=N)N)C(=O)N[C@@H](CC(C)C)C(=O)N[C@@H](CCCNC(=N)N)C(=O)c1nc2ccccc2s1) [Ac-KRLR(SEQ ID NO: 8)-Kbt] came out at 7.04

Memo: Ac-SKLR (not fully specified (C-terminus)) [Ac-SKLR(SEQ ID NO: 10)-Kbt-Trp-NH2] , reported pKi: 6.79

Query Ac-KRLR-Kbt (not fully specified) [Ac-KRLR(SEQ ID NO: 8)-Kbt-5-COOH] yields pKi of 7.69
